assay_details: gradient 5% acetonitrile 3 min, to 50% in 2 min, to 85% in 15 min, held 3 min, 100 µL/min
setup_conditions: column: Zorbax Extend-C18 2.1 x 50 mm; eluents: water / acetonitrile, 0.1% formic acid
readout_kind: RP-LC retention time (s)

Example entries and their recorded answers appear below.
>  <compound>
O=C(COC(=O)c1cccnc1)Nc1ccc2c(c1)OCO2

>  <readout_kind>
RP-LC retention time

>  <unit_symbol>
s

>  <reported_value>
640

$$$$
>  <compound>
COc1ccc(-c2nc(-c3cn(Cc4ccc(C)cc4)nn3)no2)cc1OC

>  <readout_kind>
RP-LC retention time

>  <unit_symbol>
s

>  <reported_value>
961

$$$$
>  <compound>
Cc1ccc(-n2nc3c(N4CCCC(C(=O)NCc5ccccc5)C4)nnc(C)c3c2C)cc1 (stereo not given)

>  <readout_kind>
RP-LC retention time

>  <unit_symbol>
s

>  <reported_value>
754

$$$$

a: CCS(=O)(=O)N1CCCc2cc(C(=O)NC3CCCCCC3)ccc21
b: CCOC(=O)N1CCN(C(=O)CSc2nc(=O)[nH]c3c2CCC3)CC1
Inquiry: Hi, I'm comparing two records. Which one has the lower RP-LC retention time, a or b ? Give the label under which the chosen entry appears.
Reply text: b

1: COc1ccc(-c2ccc3nc(N4CCC(C(=O)N(C)C)CC4)sc3n2)cc1
2: CCN1CCCC1CNC(=O)CN1C(=O)CCn2nc(-c3cn(C)c4ccccc34)cc21 (stereo not given)
3: CCCSCCCNC(=O)C1CCCN(c2nc3ccccc3n(Cc3ccccc3)c2=O)C1 (stereo not given)
Inquiry: Ranking field: RP-LC retention time; order: falling. Provide your answer as the labels ordered per the instruction.
Reply text: 3, 1, 2
(3: 1200 s, 1: 828 s, 2: 571 s)

* * *

assay_details: gradient 5% acetonitrile 3 min, to 50% in 2 min, to 85% in 15 min, held 3 min, 100 µL/min
setup_conditions: column: Zorbax Extend-C18 2.1 x 50 mm; eluents: water / acetonitrile, 0.1% formic acid
readout_kind: RP-LC retention time (s)

>  <compound>
COc1ccccc1CNC(=O)Cn1c(=O)cc(-c2nc(C(C)C)no2)c2ccccc21

>  <reported_value>
972

$$$$
>  <compound>
Cc1ccc(NC(=O)CN2C(=O)NC3(CCCCC3)C2=O)cc1F

>  <reported_value>
798

$$$$
>  <compound>
Cc1nnc([C@@H]2CC(F)(F)CN2C(=O)c2n[nH]c3ccccc23)o1

>  <reported_value>
666

$$$$

A: COc1cccc(CNC(=O)C2CCCN(c3nnc4ccc(Cl)cn34)C2)c1 (stereo not given)
B: COc1ccc(-c2nc3n(n2)C2(CCCCC2)[C@@H]2CCCC[C@@H]2N3C(=O)c2ccco2)cc1
Inquiry: A or B : whose RP-LC retention time is greater? Give the label under which the chosen entry appears.
Reply text: B

* * *

assay_details: gradient 5% acetonitrile 3 min, to 50% in 2 min, to 85% in 15 min, held 3 min, 100 µL/min
setup_conditions: column: Zorbax Extend-C18 2.1 x 50 mm; eluents: water / acetonitrile, 0.1% formic acid
readout_kind: RP-LC retention time (s)

P: COC(=O)c1ncn2c1C(=O)N(c1ccccc1C)C(C)(C(=O)NCc1ccc(C)cc1)C2 (stereo not given)
Q: Cc1ccc(-c2ccc(OCC(=O)NC(C)(C)C)cc2)cc1
Inquiry: Hi, I'm comparing two records. Which one has the lower RP-LC retention time, P or Q ? Give the label under which the chosen entry appears.
Reply text: P

A: CCCNC(=O)C1CCCN(S(=O)(=O)c2cc(-c3noc(CC)n3)cs2)C1 (stereo not given)
B: CCCNC(=O)C1Cn2cccc2C(=O)N1 (stereo not given)
Inquiry: Hi, I'm comparing two records. Which one has the lower RP-LC retention time, A or B ? Give the label under which the chosen entry appears.
Reply text: B
(B: 581 s, A: 841 s)

A: CCS(=O)(=O)N1CCCc2cc(C(=O)Nc3ccc4c(c3)OCCO4)ccc21
B: Cc1ccc(N2CCC(N)C2=O)cc1C (stereo not given)
Inquiry: A or B : whose RP-LC retention time is greater? Give the label under which the chosen entry appears.
Reply text: A
(A: 858 s, B: 584 s)
